Task for the reader: assign each of the following sequences its reported MIC.
- Tested on: P. cibarius HNCF44W (blaNDM-1+ tet(X6))
- Assay procedure: organism not typed
- Assay type: cell-based
Where no end group is shown, it is not given here.
Answers are plain numbers, in µg/mL.

Sample records with MIC:
{"columns": ["Residues", "Target entity", "MIC [µg/mL]"],
 "data": [
  ["GWKSFFKKFKHVWK [GK-3]", "P. cibarius HNCF44W (blaNDM-1+ tet(X6))", 8],
  ["GWKSFFKKWKHVWK [GK-2]", "P. cibarius HNCF44W (blaNDM-1+ tet(X6))", 8],
  ["GWKKFFKKWKHVWK [GK-4]", "P. cibarius HNCF44W (blaNDM-1+ tet(X6))", 4]
]}

**Query** So what's the measured MIC for this one? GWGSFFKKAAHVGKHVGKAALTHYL [Pleu, Pleurocidin]
**Result** 2
